# tested.system: Ba/F3-FGFR3-transfected cells (Homo sapiens)
# Construct: BAF3-FGFR3 (MIN IL3) pIC50; other: minus IL3
# Sequence (P22607 whole entry, change not shown): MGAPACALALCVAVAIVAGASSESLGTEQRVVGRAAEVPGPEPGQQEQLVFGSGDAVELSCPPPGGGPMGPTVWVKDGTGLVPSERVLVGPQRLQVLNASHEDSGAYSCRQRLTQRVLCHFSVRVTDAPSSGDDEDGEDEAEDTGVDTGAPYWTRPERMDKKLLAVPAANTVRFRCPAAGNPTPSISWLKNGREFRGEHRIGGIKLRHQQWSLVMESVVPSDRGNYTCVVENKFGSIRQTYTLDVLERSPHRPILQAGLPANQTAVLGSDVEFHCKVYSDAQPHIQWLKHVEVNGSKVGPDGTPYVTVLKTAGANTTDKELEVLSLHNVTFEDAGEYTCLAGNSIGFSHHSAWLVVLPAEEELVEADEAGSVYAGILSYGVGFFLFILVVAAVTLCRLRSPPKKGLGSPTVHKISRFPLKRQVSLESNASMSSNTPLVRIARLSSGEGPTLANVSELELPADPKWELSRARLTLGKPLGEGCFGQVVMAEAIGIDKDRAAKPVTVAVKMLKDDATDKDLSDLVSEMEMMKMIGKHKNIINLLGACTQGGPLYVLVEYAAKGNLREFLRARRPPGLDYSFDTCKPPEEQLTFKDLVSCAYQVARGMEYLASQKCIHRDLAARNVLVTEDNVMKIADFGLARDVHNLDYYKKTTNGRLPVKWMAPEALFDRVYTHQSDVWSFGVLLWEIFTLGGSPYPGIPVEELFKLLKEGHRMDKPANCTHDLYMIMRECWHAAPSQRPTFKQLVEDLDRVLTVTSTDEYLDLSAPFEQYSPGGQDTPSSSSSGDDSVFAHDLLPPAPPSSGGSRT
# protocol.description: Ba/F3-FGFR3 (minus IL3) cellular proliferation assay, Alamar Blue
# Type: cell-based
In this section, each of the compounds is paired with its reported BAF3-FGFR3 (MIN IL3) pIC50.
Output: the number by itself.

These solved cases illustrate the format of a correct answer.
In [3]: df
Out[3]:
                                   compound            measurement_kind  test_value
0  COc1cc(OC)c(F)c(N(Cc2ncc[nH]2)c2ccc3ncc(-c4cccnc4)nc3n2)c1 [Compound 190a]  BAF3-FGFR3 (MIN IL3) pIC50        7.72
1  COc1cc(OC)c(F)c(N(CCNC(C)C)c2ccc3ncc(-c4cnn(C)c4)nc3n2)c1  BAF3-FGFR3 (MIN IL3) pIC50         8.0

Now look at this one.
Consider the compound shown here: `COc1cc(OC)cc(N(CCNC(C)C)c2ccc3ncc(-c4cnn(C)c4)nc3n2)c1` What is its recorded BAF3-FGFR3 (MIN IL3) pIC50?
8.1

----------
# tested.system: FGFR1 (h) (Homo sapiens, UniProt P11362)
# protocol.description: FGFR1 (enzymatic assay), TR-FRET
# Format: biochemical
# run.conditions: read-out: FGFR 1 pIC50 (converted)
measurement.kind: IC50 (nM)
Express your answer in nM, writing the number without its unit.

                                   molecule  test_value
0  Cn1cc(-c2cnc3ccc(N(Cc4ncc[nH]4)c4c(F)c(F)cc(F)c4F)nc3n2)cn1        4.07
1  COc1cc(OC)cc(N(c2ccc3ncc(-c4cnn(C)c4)nc3n2)C(C)c2ncc[nH]2)c1 (stereo not drawn)       0.851
2  COc1cc(OC)c(F)c(N(CCN2CCCC2=O)c2ccc3ncc(-c4cnn(C)c4)nc3n2)c1        10.5
3  COc1cc(OC)c(F)c(N(Cc2ncc[nH]2)c2ccc3ncc(-c4cn[nH]c4)nc3n2)c1       0.617
4  COc1cc(OC)c(F)c(N(Cc2ncc[nH]2)c2ccc3ncc(-c4cnn(CCCN)c4)nc3n2)c1       0.562
5  COc1cc(OC)c(F)c(N(CC(O)COC(C)C)c2ccc3ncc(-c4cnn(CC(O)COC(C)C)c4)nc3n2)c1 (single isomer, unassigned)        1.95

Consider the molecule shown here: COc1cc(OC)c(F)c(N(Cc2ncc[nH]2)c2ccc3ncc(-c4cccnc4)nc3n2)c1 [Compound 190a] What is its recorded IC50?
1.02

Moving on to `COc1cc(/N=c2\ccc3ncc(-c4cnn(C)c4)nc3n2Cc2cn[nH]c2)c(F)c(OC)c1`
0.55

----------
In this section, each of the molecules is paired with its reported BAF3-FGFR4 pIC50.
# tested.system: Ba/F3-FGFR4-transfected cells (Homo sapiens, UniProt P22455)
# Sequence (P22455 whole entry, change not shown): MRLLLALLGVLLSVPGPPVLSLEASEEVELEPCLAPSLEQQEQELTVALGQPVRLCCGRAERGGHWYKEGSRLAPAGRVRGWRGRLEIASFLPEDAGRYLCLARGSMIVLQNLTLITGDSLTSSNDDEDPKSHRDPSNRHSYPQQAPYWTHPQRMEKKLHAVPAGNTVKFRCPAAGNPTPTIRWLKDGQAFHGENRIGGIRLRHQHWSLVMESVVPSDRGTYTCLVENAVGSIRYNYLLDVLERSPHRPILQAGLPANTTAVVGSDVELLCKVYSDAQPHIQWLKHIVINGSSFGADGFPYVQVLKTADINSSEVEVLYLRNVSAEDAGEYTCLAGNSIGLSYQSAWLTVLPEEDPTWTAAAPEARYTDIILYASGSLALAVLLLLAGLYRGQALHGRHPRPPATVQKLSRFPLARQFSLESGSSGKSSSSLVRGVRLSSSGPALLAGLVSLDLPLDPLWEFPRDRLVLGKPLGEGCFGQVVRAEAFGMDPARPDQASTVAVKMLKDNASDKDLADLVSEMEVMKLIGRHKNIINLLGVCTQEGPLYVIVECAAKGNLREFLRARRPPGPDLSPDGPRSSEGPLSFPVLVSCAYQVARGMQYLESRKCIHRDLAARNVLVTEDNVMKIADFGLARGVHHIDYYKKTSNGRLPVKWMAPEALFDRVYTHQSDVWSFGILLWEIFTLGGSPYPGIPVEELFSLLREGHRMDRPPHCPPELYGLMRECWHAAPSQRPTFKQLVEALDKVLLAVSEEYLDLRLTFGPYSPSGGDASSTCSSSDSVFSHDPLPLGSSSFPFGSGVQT
# protocol.description: Ba/F3-FGFR4 cellular proliferation assay, Alamar Blue
# Assay type: cell-based
Output: the number by itself.

                                   molecule  measurement_kind  test_value
0  COc1cc(OC)c(F)c(N(CC2CC2)c2ccc3ncc(-c4cnn(C)c4)nc3n2)c1F (single isomer, unassigned)  BAF3-FGFR4 pIC50        6.90
1  COc1cc(OC)c(F)c(N(CCS(C)(=O)=O)c2ccc3ncc(-c4cnn(C)c4)nc3n2)c1  BAF3-FGFR4 pIC50        6.60
2  COc1cc(OC)cc(N(Cc2n[nH]c(=O)o2)c2ccc3ncc(-c4cnn(C)c4)nc3n2)c1  BAF3-FGFR4 pIC50        5.45
3  COc1cc(OC)cc(N(Cc2ncccn2)c2ccc3ncc(-c4cnn(C)c4)nc3n2)c1  BAF3-FGFR4 pIC50        6.26
4  COc1cc(OC)c(F)c(N(CC2CCC(=O)N2CCO)c2ccc3ncc(-c4cnn(C)c4)nc3n2)c1 (stereo not shown) [Compound 194]  BAF3-FGFR4 pIC50        5.50

Consider the molecule shown here: `COc1cc(OC)c(F)c(N(CCN2CCOCC2)c2ccc3ncc(-c4cnn(C)c4)nc3n2)c1` What is its recorded BAF3-FGFR4 pIC50?
7.12

Moving on to `COc1cc(OC)c(F)c(N(CCCN2CCCC2=O)c2ccc3ncc(-c4cnn(C)c4)nc3n2)c1`
6.84

----------
# tested.system: FGFR1 (h) (Homo sapiens)
# protocol.description: FGFR1 (enzymatic assay), TR-FRET
# Type: biochemical
# run.conditions: read-out: FGFR 1 pIC50 (converted)
In this section, each of the compounds is paired with its reported IC50.
Express your answer in nM, writing the number without its unit.

These solved cases illustrate the format of a correct answer.
                                   compound             tested_system  test_value
0  COc1cc(/N=c2\ccc3ncc(-c4cnn(C)c4)nc3n2CC(C)(C)O)c(F)c(OC)c1  FGFR1 (h) (Homo sapiens)       0.603
1  COc1cc(OC)c(F)c(N(CCS(C)(=O)=O)c2ccc3ncc(-c4cnn(C)c4)nc3n2)c1  FGFR1 (h) (Homo sapiens)       0.912
2  COc1cc(OC)c(F)c(/N=c2\ccc3ncc(-c4cnn(C)c4)nc3n2CC2CC2)c1F (single isomer, unassigned)  FGFR1 (h) (Homo sapiens)       0.977
3  COc1cc(OC)cc(N(Cc2nnc(NCCO)o2)c2ccc3ncc(-c4cnn(C)c4)nc3n2)c1  FGFR1 (h) (Homo sapiens)        33.1
4  COc1cc(/N=c2\ccc3ncc(-c4cnn(C)c4)nc3n2CC2COC(=O)N2)c(F)c(OC)c1 (stereo not drawn)  FGFR1 (h) (Homo sapiens)        1.35
5  COc1cc(OC)c(F)c(N(CC2CCC(=O)N2C)c2ccc3ncc(-c4cnn(C)c4)nc3n2)c1 (stereo not drawn) [Compound 159]  FGFR1 (h) (Homo sapiens)        8.51

Consider the compound shown here: `COc1cc(/N=c2\ccc3ncc(-c4cnn(C)c4)nc3n2Cc2cc(C)no2)c(F)c(OC)c1` What is its recorded IC50?
0.977

Moving on to `COc1cc(OC)c(F)c(N(Cc2ncc[nH]2)c2ccc3ncc(N4CCOCC4)nc3n2)c1F`
0.741

Moving on to COc1cc(OC)c(F)c(N(CC2CCOC2)c2ccc3ncc(-c4cnn(C)c4)nc3n2)c1 (single isomer, unassigned) [Compound 171]
3.55

Moving on to `COc1cc(OC)c(F)c(N(Cc2c(C)noc2C)c2ccc3ncc(-c4cnn(C)c4)nc3n2)c1`
11.2

Moving on to COc1cc(OC)c(F)c(N(CC2CCCCO2)c2ccc3ncc(-c4cnn(C)c4)nc3n2)c1 (stereo not drawn)
3.16

Moving on to `COc1cc(OC)c(F)c(N(Cc2ncc[nH]2)c2ccc3ncc(-c4ccccc4)nc3n2)c1`
0.537

Moving on to `COc1cc(OC)c(F)c(N(CCN2CCOCC2)c2ccc3ncc(-c4cnn(C)c4)nc3n2)c1`
2.45

Moving on to `COc1cc(/N=c2\ccc3ncc(-c4cnn(C)c4)nc3n2CC(C)(C)O)cc(OC)c1`
0.871

Moving on to `COc1cc(OC)c(C)c(N(Cc2ncc[nH]2)c2ccc3ncc(-c4cnn(C)c4)nc3n2)c1`
1.15

----------
In this section, each of the compounds is paired with its reported IC50.
# tested.system: FGFR2 (h) (Homo sapiens)
# Sequence (P21802 22-821): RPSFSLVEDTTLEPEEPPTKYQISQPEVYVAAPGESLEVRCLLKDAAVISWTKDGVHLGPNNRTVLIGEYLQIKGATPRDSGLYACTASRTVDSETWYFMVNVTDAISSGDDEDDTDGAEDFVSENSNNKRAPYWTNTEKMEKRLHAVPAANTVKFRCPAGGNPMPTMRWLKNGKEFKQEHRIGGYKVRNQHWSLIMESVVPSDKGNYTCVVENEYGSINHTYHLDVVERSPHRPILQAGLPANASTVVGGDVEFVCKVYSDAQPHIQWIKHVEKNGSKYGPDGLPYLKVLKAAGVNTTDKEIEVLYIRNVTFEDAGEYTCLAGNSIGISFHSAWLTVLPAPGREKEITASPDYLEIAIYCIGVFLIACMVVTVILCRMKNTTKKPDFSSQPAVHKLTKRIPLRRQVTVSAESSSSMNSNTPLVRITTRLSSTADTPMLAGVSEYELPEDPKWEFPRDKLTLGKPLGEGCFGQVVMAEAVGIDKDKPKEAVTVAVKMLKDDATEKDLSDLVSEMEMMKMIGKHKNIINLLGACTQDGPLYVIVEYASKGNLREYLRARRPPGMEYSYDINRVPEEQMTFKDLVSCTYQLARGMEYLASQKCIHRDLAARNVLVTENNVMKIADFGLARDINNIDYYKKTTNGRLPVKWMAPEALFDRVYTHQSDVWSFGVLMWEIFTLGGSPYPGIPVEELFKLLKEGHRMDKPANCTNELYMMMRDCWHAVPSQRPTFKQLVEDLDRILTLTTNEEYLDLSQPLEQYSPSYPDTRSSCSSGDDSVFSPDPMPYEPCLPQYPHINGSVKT
# protocol.description: FGFR2 (enzymatic assay), TR-FRET
# Format: biochemical
# run.conditions: enzymatic assay; read-out: FGFR 2 pIC50 (converted)
Express your answer in nM, writing the number without its unit.

These solved cases illustrate the format of a correct answer.
In [3]: df
Out[3]:
                               entry_smiles  units_text  test_value
0  COc1cc(OC)cc(N(Cc2ncc[nH]2)c2ccc3ncc(-c4cn[nH]c4)nc3n2)c1          nM       0.933
1  COc1cc(OC)c(F)c(N(Cc2nnc(NCCO)o2)c2ccc3ncc(-c4cnn(C)c4)nc3n2)c1          nM        5.13

Now look at this one.
API: value(readout=IC50, system=FGFR2 (h) (Homo sapiens)) for record `COc1cc(OC)c(F)c(N(CC2COC2)c2ccc3ncc(-c4cnn(C)c4)nc3n2)c1`
2.82

----------
# tested.system: Ba/F3-FGFR1-transfected cells (Homo sapiens, UniProt P11362)
# Construct: BAF3-FGFR1 (MIN IL3) pIC50; other: minus IL3
# Sequence (P11362 whole entry, change not shown): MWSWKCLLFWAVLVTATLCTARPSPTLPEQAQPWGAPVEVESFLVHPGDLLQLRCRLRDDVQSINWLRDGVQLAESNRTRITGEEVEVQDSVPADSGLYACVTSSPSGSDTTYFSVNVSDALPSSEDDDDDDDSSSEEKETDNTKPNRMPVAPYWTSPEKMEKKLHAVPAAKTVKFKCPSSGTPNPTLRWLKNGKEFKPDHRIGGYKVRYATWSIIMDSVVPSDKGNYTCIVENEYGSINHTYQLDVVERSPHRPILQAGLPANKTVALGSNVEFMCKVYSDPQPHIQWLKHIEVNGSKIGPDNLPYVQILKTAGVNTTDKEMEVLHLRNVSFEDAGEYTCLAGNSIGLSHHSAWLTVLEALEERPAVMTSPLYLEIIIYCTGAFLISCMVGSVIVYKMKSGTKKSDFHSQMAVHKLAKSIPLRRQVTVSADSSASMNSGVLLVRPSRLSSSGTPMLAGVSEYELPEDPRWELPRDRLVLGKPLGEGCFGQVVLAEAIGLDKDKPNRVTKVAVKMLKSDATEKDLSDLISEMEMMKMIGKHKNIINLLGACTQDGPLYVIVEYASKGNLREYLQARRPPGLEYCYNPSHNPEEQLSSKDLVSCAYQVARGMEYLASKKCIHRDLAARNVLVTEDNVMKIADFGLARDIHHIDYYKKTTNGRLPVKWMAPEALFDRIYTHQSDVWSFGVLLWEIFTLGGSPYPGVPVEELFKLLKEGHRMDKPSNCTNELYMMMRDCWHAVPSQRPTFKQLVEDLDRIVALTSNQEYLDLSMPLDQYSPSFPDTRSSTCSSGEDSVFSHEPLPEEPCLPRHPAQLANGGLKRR
# protocol.description: Ba/F3-FGFR1 (minus IL3) cellular proliferation assay, Alamar Blue
# Format: cell-based
In this section, each of the molecules is paired with its reported BAF3-FGFR1 (MIN IL3) pIC50.
Output: the number by itself.

These solved cases illustrate the format of a correct answer.
>>> df
                                   molecule            measurement_kind  test_value
0  COc1cc(OC)cc(N(CC2COC2)c2ccc3ncc(-c4cnn(C)c4)nc3n2)c1 [Compound 142]  BAF3-FGFR1 (MIN IL3) pIC50        5.49
1  COc1cc(OC)c(F)c(N(CC(N)=O)c2ccc3ncc(-c4cnn(C)c4)nc3n2)c1 [Compound 239]  BAF3-FGFR1 (MIN IL3) pIC50        6.44

Consider the molecule shown here: COc1cc(OC)c(F)c(N(Cc2ncc[nH]2)c2ccc3ncc(-c4cnn(C)c4)nc3n2)c1F [Compound 25] What is its recorded BAF3-FGFR1 (MIN IL3) pIC50?
8.8

Moving on to COc1cc(OC)cc(N(Cc2c[nH]nn2)c2ccc3ncc(-c4cnn(C)c4)nc3n2)c1 [Compound 251]
6.99
